The measured values listed here are drawn from paper PMC3404088.

- measuredOn: T1, Aβ1–42 fibrils (UniProt P05067 672-713)
- T1 construct: amyloid-β peptide Aβ1–42, cut from the amyloid precursor protein (APP), in fibrillar form; Aggregated (fibrillar) state of the same peptide as m15; also called fibrillar Aß1–42; Aβ fibrils; source: bought: JPT Biotech or Bachem AG (HPLC purified peptide); fibrils formed at 37°C (7 days in PBS pH 7.4 for SPR; five days in 50 mM Tris-HCl pH 7.4 for ELISA)
- assayOverview: ELISA; Aβ1–42 fibrils coated on the plate (10 µg/ml, bicarbonate-carbonate buffer pH 9.6); D-compounds from 10 µg/ml, 2 h at 37°C; detected by anti-fluorescein isothiocyanate-AP, pNPP 2.5 h
- conditionDescription: both partners purified
Square brackets hold non-standard residues; d marks the D form. Primed or numbered codes have the meaning given here. Ends that are not written are not given here. FITC′ = fluorescein isothiocyanate (ϕ)
Hi! Just check whether binding value (ELISA, 10 ug/mL compound) is below 1. Below gives yes (1), equal or above gives no (0).

{"binder": "[dQ][dS][dH][dY][dR][dH][dI][dS][dP][dA][dQ][dK][dK](FITC′) (also: [19F]-4-fluorobenzoyl label, place not given here, D-enantiomeric derivative of ACI-80 (D1): V12K, added C-terminal lysine, fluorinated; The text says V12K was made to enable fluorination; also called D1-V12K-K[^19F]ϕ; source: synthetic peptide, reacted with [^19F]-N-succinimidyl-4-fluorobenzoate (SFB), HPLC purified) [[^19F]-ACI-87-Kϕ]", "class": "no (0)"}
{"binder": "[dP][dS][dF][dY][dR][dH][dI][dS][dP][dA][dQ][dV][dK](FITC′) (D-enantiomeric derivative of ACI-80 (D1): Q1P, H3F, added C-terminal lysine; also called D1-Q1P-H3F-Kϕ; source: synthetic peptide (JPT Peptide Technologies GmbH, Berlin)) [ACI-86-Kϕ]", "class": "no (0)"}
{"binder": "[dQ][dS][dH][dY][dR][dH][dI][dS][dP][dA][dQ][dV][dK](FITC′) (D-enantiomeric peptide ACI-80 (D1), selected by mirror image phage display on aggregated Aβ1–42, with an added C-terminal lysine; also called D1-Kϕ; source: synthetic peptide (JPT Peptide Technologies GmbH, Berlin)) [ACI-80-Kϕ]", "class": "yes (1)"}
{"binder": "[dS][dH][dY][dR][dH][dI][dS][dP][dA][dQ][dK][dK](FITC′) (D-enantiomeric derivative of ACI-80 (D1): N-terminal glutamine deleted (Q1X), V12K, added C-terminal lysine; also called D1-Q1X-V12K-Kϕ; source: synthetic peptide (JPT Peptide Technologies GmbH, Berlin)) [ACI-88-Kϕ]", "class": "no (0)"}
{"binder": "[dQ][dS][dH][dY][dR][dH][dI][dS][dP][dA][dQ][dK][dK](FITC′) (D-enantiomeric derivative of ACI-80 (D1): V12K, added C-terminal lysine; also called D1-V12K-Kϕ; source: synthetic peptide (JPT Peptide Technologies GmbH, Berlin)) [ACI-87-Kϕ]", "class": "yes (1)"}
{"binder": "[dP][dS][dH][dY][dR][dH][dI][dS][dP][dA][dQ][dV][dK](FITC′) (D-enantiomeric derivative of ACI-80 (D1): Q1P, added C-terminal lysine; also called D1-Q1P-Kϕ; source: synthetic peptide (JPT Peptide Technologies GmbH, Berlin)) [ACI-83-Kϕ]", "class": "no (0)"}
{"binder": "[dP][dS][dH][dY][dR][dH][dI][dS][dP][dA][dQ][dK][dK](FITC′) (also: [19F]-4-fluorobenzoyl label, place not given here, D-enantiomeric derivative of ACI-80 (D1): Q1P, V12K, added C-terminal lysine, fluorinated; also called D1-Q1P-V12K-K[^19F]ϕ; source: synthetic peptide, reacted with [^19F]-N-succinimidyl-4-fluorobenzoate (SFB), HPLC purified) [[^19F]-ACI-89-Kϕ]", "class": "no (0)"}
{"binder": "[dS][dH][dY][dR][dH][dI][dS][dP][dA][dQ][dK][dK](FITC′) (also: [19F]-4-fluorobenzoyl label, place not given here, D-enantiomeric derivative of ACI-80 (D1): N-terminal glutamine deleted (Q1X), V12K, added C-terminal lysine, fluorinated; also called D1-Q1X-V12K-K[^19F]ϕ; source: synthetic peptide, reacted with [^19F]-N-succinimidyl-4-fluorobenzoate (SFB), HPLC purified) [[^19F]-ACI-88-Kϕ]", "class": "no (0)"}
{"binder": "[dP][dS][dH][dY][dR][dH][dI][dS][dP][dA][dQ][dK][dK](FITC′) (D-enantiomeric derivative of ACI-80 (D1): Q1P, V12K, added C-terminal lysine; also called D1-Q1P-V12K-Kϕ; source: synthetic peptide (JPT Peptide Technologies GmbH, Berlin)) [ACI-89-Kϕ]", "class": "no (0)"}

We now examine a further binder.
Could you please tell me whether binding value (ELISA, 10 ug/mL compound) recorded for [dS][dH][dY][dR][dH][dI][dS][dP][dA][dQ][dV][dK](FITC′) (D-enantiomeric derivative of ACI-80 (D1): N-terminal glutamine deleted (Q1X), added C-terminal lysine; also called D1-Q1X-Kϕ; source: synthetic peptide (JPT Peptide Technologies GmbH, Berlin)) [ACI-82-Kϕ] is less than 1?
no (0)
